Sourced from the supplement of paper PMC9170038

# Tested on: MS2 coat protein
# assayComment: apparent KD of MS2 coat protein; higher = weaker reporter binding
# reportedConditions: Eterna round: R107; input ligand: theophylline 2 mM
In this section we review reported apparent KD of MS2 coat protein values for a set of sequences.

// apparent KD of MS2 coat protein value for GGGCCCGGGCGCGAGCCCGGGCCCAUUGAUACCAGUGAAAAUAUACGCCCUUGGCAGCGAAUCCUAACAUGAGGAUCACCCAUGU [5.A] : 70.9 nM

// apparent KD of MS2 coat protein value for GCCAGUCAUAGCAGGGCAAAUAUACUCGAAGGAGCGUCAUAGUAGGCAGGUAGGUCGCGAGACAUGAGGAUCACCCAUGUAGAGA [fffmullin] : 48.3 nM

// apparent KD of MS2 coat protein value for UCGCCCGGGUCGGCCGCCACUGAGGUAAUAUGACAUGAGGAUCACCCAUGUUGUCAUGUGGAACAUAGGACCGGGACCCGGGCGA [Exclusion - Tryptophan B Attempt #1 (HarryS)] : 15.2 nM

// apparent KD of MS2 coat protein value for GUCUCUGAGAGAAGGAGCGUGAAGACAUGAGGAUCACCCAUGUAGAGGCGCCGAAGGCGUUCGCAGGUAGGUCGCUCUCAGAGAC [#1 Same State - Arginine B Attempt #20 (HarryS)] : 17.5 nM

// apparent KD of MS2 coat protein value for UGUAUGUGAUCUGAUACCAGCGAUGAUAACCUGAGGAUCACCCUGGUAAGGCGAAAGCCUCGCCCUUGGCAGCAGAUCGCAUACU : 24 nM

// apparent KD of MS2 coat protein value for CAAACAUGAGGAUCACCCAUGUAAACCGAAGGAGCGACGCAUAAGUCAGGUAGGUCGCGGAAGAUAAAAUAGAACACUGGGCACA [Same State Arginine A GF1] : 17.3 nM

----------
In this section we review reported apparent KD of K4 kissing-loop reporter values for a set of sequences.
# Tested on: K4 kissing-loop RNA reporter;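 also: bound reporter read as fluorescence of individual clusters on recovered sequencing chips by microscopy, with normalized cluster intensities fitted with a binding model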
# assayComment: apparent KD of K4 kissing-loop reporter; higher = weaker reporter binding
# reportedConditions: Eterna round: R107; input ligand: none

querySequence: GGGAAGAAGGCGGCCGCCACUGCAGAAGAGACAGAGAGGGAAGAAGAGGAGUGAUGUUCCAAGAACAGGACCGGGCCAAGAAGGG [whbob_SS_Tryp_B_t29]
apparent KD of K4 kissing-loop reporter: 119 nM

// apparent KD of K4 kissing-loop reporter value for AGAGUGAUGUUUUUUUGAAGUGAGUAAAGUCGAGGACCGGUACGGCCGCCACUCGAGUGAUGUUAGUGAUGUUGAUGUAGUGAUG [xxzmullin] : 90.9 nM

// apparent KD of K4 kissing-loop reporter value for AAACAUUGGUCGGAUACCAGCUGAUCGGAAACGAUCUUGCUGGAGUGAUGUUCCAAGUAAAGCCCUUGGCAGCCGACCGAUGAAA [MAT - Same State Theophlline B - Mod of Eli - D20] : 63.2 nM

// apparent KD of K4 kissing-loop reporter value for UUUUUGGAGAAUUAUAGUGAUGUUAUGAAGAAGGAUAUCUAAAGAUGGAGAAGGUUUAAUAGUUAAGGGAUGGAGGGUGGGUGGG [ExFMNA.P] : 293 nM

// apparent KD of K4 kissing-loop reporter value for UGAUACCAGGCGGCCGCCACUCCUACAGGUCAAAGACCUGUAAAACUGGUUUUUUAGUGAUGUUGGAGGACCGGGCCUGGUAUCU [FiskerMod 28 - Jieux - Exclusion - Tryptophan B] : 178 nM

// apparent KD of K4 kissing-loop reporter value for ACUUUGGGCCCAGUGAUGUUGGGUCCAGAUACCAGACGUAAAUAAGUCCCUUGGCAGCUGCGUACUAACUAGCACAGGAGGGUCC [Edleaes] : 150 nM
